biological target: human SLC6A19 and TMEM27 (Homo sapiens, UniProt Q695T7); construct: expressed in transfected cells; experiment: Radiolabelled (3H) leucine uptake in CHO cells with doxycycline-inducible expression of human SLC6A19 and TMEM27 (Example B-1); type: cell-based; settings: CHO cells with doxycycline-inducible expression of human SLC6A19 and TMEM27, read-out: SLC6A19_Radioligand Uptake Assay IC50
Sequence (Q695T7 whole entry): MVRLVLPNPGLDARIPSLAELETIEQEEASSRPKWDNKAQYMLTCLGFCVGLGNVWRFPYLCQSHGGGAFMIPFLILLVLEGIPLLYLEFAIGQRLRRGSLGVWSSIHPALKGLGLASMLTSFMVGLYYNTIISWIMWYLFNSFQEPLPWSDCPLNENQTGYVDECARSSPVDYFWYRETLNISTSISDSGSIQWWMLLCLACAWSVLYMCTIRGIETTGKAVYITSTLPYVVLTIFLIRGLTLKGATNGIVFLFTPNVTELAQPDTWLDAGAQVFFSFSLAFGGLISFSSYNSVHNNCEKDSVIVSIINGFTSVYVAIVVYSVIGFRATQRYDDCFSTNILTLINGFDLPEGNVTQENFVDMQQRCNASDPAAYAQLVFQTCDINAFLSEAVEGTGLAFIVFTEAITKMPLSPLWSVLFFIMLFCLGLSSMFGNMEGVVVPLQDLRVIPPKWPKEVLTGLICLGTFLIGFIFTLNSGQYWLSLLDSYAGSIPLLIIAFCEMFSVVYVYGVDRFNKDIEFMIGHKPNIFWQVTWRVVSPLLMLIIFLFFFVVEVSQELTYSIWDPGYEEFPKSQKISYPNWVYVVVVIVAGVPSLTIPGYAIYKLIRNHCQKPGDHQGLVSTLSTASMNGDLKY
Sequence (Q9HBJ8 15-222 partner): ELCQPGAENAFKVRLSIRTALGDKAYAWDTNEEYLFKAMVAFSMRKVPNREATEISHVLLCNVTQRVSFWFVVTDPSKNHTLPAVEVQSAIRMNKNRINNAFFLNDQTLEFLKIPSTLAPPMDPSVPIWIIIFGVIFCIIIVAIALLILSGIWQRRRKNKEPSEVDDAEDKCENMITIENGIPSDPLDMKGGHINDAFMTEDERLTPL
property_label: IC50 (nM)
Answers are plain numbers, in nM.

These recorded examples may help you get a feel for the data.
Cc1cc(COc2cc3[nH]c(CNC(=O)C45CC(CO4)C5)cc3cc2Cl)on1: 327
Cc1cc2cc(CNC(=O)C3(C)CC3)[nH]c2cc1OCc1cscn1: 118

// for each compound below, give its IC50
1. O=C(NCc1cc2cc(Cl)c(OCc3cscn3)cc2[nH]1)C1(C(F)F)CC1
2. Cn1ncc(COc2cc3[nH]c(CNC(=O)N4CCCC4)cc3cc2F)n1
3. Cc1cc(COc2cc3[nH]c(CNC(=O)[C@@H]4CCC[C@H]4O)cc3cc2Cl)on1 (racemic)

1. 196
2. 386
3. 3040

Parameter requested: IC50. Apply to each item below.
1. Cc1cc(COc2cc3[nH]c(CNC(=O)[C@@H]4C[C@@H]4F)cc3cc2Cl)on1
2. O=C(NCc1cc2cc(F)c(CCc3cscn3)cc2[nH]1)N1CCCC1
3. O=C(NCc1cc2cc(C3CC3)c(OCc3ccon3)cc2[nH]1)N1CCC1

[131, 174, 387]

* * *

target: human SLC6A19 and TMEM27 (Homo sapiens, UniProt Q695T7); construct: expressed in transfected cells; test: Radiolabelled (3H) leucine uptake in CHO cells with doxycycline-inducible expression of human SLC6A19 and TMEM27 (Example B-1); format: cell-based; details: CHO cells with doxycycline-inducible expression of human SLC6A19 and TMEM27, read-out: SLC6A19_Radioligand Uptake Assay IC50
property_label: pIC50
Numbers only, as −log10 of the molar value.

# example entries with known answers
Cc1cc(C(C)Cc2ccc3cc(CNC(=O)C4(C)CC4)[nH]c3c2)no1 (stereo not drawn): 4.83
CC(=O)NCc1cc2cc(F)c(OCc3cscn3)cc2[nH]1: 6.88
CC(C)OC(=O)NCc1cc2cc(Cl)c(OCc3cscn3)cc2[nH]1: 6.27
CC1(C(=O)NCc2cc3cc(F)c(OCc4cc(C(F)(F)F)on4)cc3[nH]2)CC1: 5.91
Cc1nc(COc2cc3[nH]c(CNC(=O)C4(C)CC4)cc3cc2Cl)no1: 6.65

I would be grateful if you could provide pIC50 for each of the following entries.
1. O=C(NCc1cc2ccc(OCc3ccon3)cc2[nH]1)N1CCOCC1
2. O=C(NCc1cc2cc(Cl)c(OCc3cccc(F)n3)cc2[nH]1)C1CC1

1: 5.86; 2: 6.67

* * *

target: human SLC6A19 and TMEM27 (Homo sapiens, UniProt Q695T7); construct: expressed in transfected cells; assay: 13C6,15N-isoleucine uptake in CHO cells with doxycycline-inducible expression of human SLC6A19 and TMEM27, RapidFire mass spectrometry (Example B-2); assay type: cell-based; details: read-out: SLC6A19_RapidFire Uptake Assay IC50
I'd appreciate it if you could supply pIC50 values for the items below.
Numbers only, as −log10 of the molar value.

CC1(C(=O)NCc2cc3ccc(OCc4cocn4)cc3[nH]2)CC1: 6.39
O=C(NCc1cc2cc(F)c(OCc3cscn3)cc2[nH]1)C1CCC1: 7.16
Cn1ncc(COc2cc3[nH]c(CNC(=O)N4CCCC4)cc3cc2F)n1: 6.24
CC1(C(=O)NCc2cc3ccc(OCc4ccncc4)cc3[nH]2)CC1: 5.71

Please go through the list and note pIC50 for each compound.
1. CC1(C(=O)NCc2cc3ccc(OCc4ccc(F)nc4)cc3[nH]2)CC1
2. CC(=O)NCc1cc2cc(F)c(OCc3cccc(F)n3)cc2[nH]1
3. COC(=O)NCc1cc2cc(Cl)c(OCc3cscn3)cc2[nH]1
4. CC1(C(=O)NCc2cc3cc(Cl)c(OCc4ncc(Cl)s4)cc3[nH]2)CC1

1: 6.21; 2: 6.02; 3: 7.51; 4: 6.27

# pIC50 of O=C(NCc1cc2cc(Cl)c(OCc3cscn3)cc2[nH]1)N1CCCC1 = 7.35
